target: Interleukin-23 receptor (Homo sapiens, UniProt Q5VWK5); assay: Inhibition of interleukin-23 binding to human interleukin-23 receptor incubated for 2 hrs by competitive binding ELISA
pIC50: −log10 of the molar value. *1 amine or outer side, *2 acyl side, *3 side chain or, on linkers, in order; H or OH if unused. Where a SMILES comes first, the peptide text is derived from it. Bridges are numbered along the chain shown (N, C = ends). [ ]: non-standard residue; d: D form. The star is where a group is joined. Abu(4-yl) = O=C([C@H](CC[*:3])N[*:1])[*:2]; AEF = NCCOc1ccc(C[C@H](N)C(=O)O)cc1; αMeK = C[C@](N)(CCCCN)C(=O)O; Dap = NC[C@H](N)C(=O)O; OBn = c1ccc(CO*)cc1
property: pIC50

Here's what some known entries look like.
[
  {
    "compound": "CC(=O)N[C@@H](CS)C(=O)N[C@@H](C)C(=O)N[C@@H](CC(=O)O)C(=O)N[C@@H](Cc1c[nH]c2ccccc12)C(=O)N[C@H](C(=O)N[C@@H](CS)C(=O)N[C@@H](Cc1ccc(O)cc1)C(=O)N[C@@H](Cc1c[nH]c2ccccc12)C(=O)N[C@@H](Cc1cnc[nH]1)C(=O)N[C@H](C(=O)N[C@@H](Cc1ccccc1)C(=O)NCC(=O)NCCOCCC(=O)N[C@H](CCCNC(=N)N)C(=O)O)[C@@H](C)O)C(C)C",
    "assayValue": "> 6.30"
  },
  {
    "compound": "CC(=O)NCC(=O)N[C@H](CC(N)=O)C(=O)N[C@H](CCC(=O)O)C(=O)N[C@H](CC(C)C)C(=O)N[C@H](Cc1c[nH]c2ccccc12)C(=O)N[C@H](Cc1ccc(O)cc1)C(=O)N[C@H](CS)C(=O)N[C@H](CCC(N)=O)C(=O)N[C@H](Cc1c[nH]c2ccccc12)C(=O)N[C@@H](C(=O)N[C@H](CCC(N)=O)C(=O)N[C@H](CS)C(N)=O)[C@H](C)O",
    "assayValue": "< 4.52"
  },
  {
    "compound": "CC(C)[C@H](NC(=O)[C@H](Cc1c[nH]c2ccccc12)NC(=O)[C@H](CC(=O)O)NC(=O)[C@H](C)NC(=O)[C@@H](N)CS)C(=O)N[C@@H](CS)C(=O)N[C@@H](Cc1ccc(O)cc1)C(=O)N[C@@H](Cc1cccc2ccccc12)C(=O)N[C@@H](Cc1cnc[nH]1)C(=O)N[C@H](C(=O)N[C@H](Cc1ccccc1)C(=O)O)[C@@H](C)O",
    "assayValue": "< 6.00"
  },
  {
    "compound": "CC(=O)NCCCC[C@H](NC(=O)[C@](C)(CCCCN)NC(=O)[C@H](Cc1ccc2ccccc2c1)NC(=O)[C@H](Cc1ccc2ccccc2c1)NC(=O)[C@@H]1CSCC[C@H](NC(C)=O)C(=O)N[C@@H](CCC(N)=O)C(=O)N[C@@H]([C@@H](C)O)C(=O)N[C@@H](Cc2c[nH]c3ccccc23)C(=O)N[C@@H](CCC(N)=O)C(=O)N1)C(=O)N[C@@H](CC(N)=O)C(=O)NCC(N)=O",
    "assayValue": "7.00 to 7.60"
  }
]

Consider the record given below.
Ask: Could you tell me which pIC50 is on file for CC(=O)NCCCC[C@H](NC(=O)[C@](C)(CCCCN)NC(=O)[C@H](CCC(=O)OCc1ccccc1)NC(=O)[C@H](Cc1ccc(OCCN)cc1)NC(=O)[C@@H]1CSCC[C@H](NC(C)=O)C(=O)N[C@@H](CN)C(=O)N[C@@H]([C@@H](C)O)C(=O)N[C@@H](Cc2c[nH]c3ccccc23)C(=O)N[C@@H](CCC(N)=O)C(=O)N1)C(=O)N[C@@H](CC(N)=O)C(=O)NCC(N)=O (Ac-[Abu(4-yl)][Dap]TWQC[AEF]E(OBn)[αMeK]K(Ac)NG-NH2; thioether 1-6) ?
Result: < 5.52

###

Below, each entry is listed with its recorded IC50.
Target: Interleukin-23 receptor (Homo sapiens, UniProt Q5VWK5)
Sequence (Q5VWK5 whole entry): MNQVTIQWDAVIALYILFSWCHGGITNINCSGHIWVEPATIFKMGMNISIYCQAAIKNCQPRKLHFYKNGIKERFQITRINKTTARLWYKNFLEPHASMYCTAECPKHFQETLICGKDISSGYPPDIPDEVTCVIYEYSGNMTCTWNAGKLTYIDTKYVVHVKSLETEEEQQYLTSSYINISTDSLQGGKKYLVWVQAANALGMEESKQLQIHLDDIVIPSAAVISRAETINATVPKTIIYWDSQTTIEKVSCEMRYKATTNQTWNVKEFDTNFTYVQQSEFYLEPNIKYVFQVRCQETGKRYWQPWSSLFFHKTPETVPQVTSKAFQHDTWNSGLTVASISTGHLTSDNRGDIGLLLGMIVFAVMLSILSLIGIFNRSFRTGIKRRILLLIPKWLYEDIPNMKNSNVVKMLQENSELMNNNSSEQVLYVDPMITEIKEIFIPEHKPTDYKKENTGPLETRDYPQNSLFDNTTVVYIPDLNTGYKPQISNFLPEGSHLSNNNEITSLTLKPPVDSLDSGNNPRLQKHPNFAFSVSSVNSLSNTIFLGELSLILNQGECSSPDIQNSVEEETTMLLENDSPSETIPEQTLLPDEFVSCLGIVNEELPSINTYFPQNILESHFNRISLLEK
Test: Inhibition of interleukin-23 binding to human interleukin-23 receptor incubated for 2 hrs by competitive binding ELISA

Here's what some known entries look like.
[
  {
    "molSmiles": "CC(=O)N[C@@H](CS)C(=O)N[C@@H](CCC(N)=O)C(=O)N[C@H](C(=O)N[C@@H](Cc1c[nH]c2ccccc12)C(=O)N[C@@H](CCC(N)=O)C(=O)N[C@@H](CS)C(=O)N[C@@H](Cc1cnc[nH]1)C(=O)N[C@@H](Cc1c[nH]c2ccccc12)C(=O)N[C@@H](CCC(C)C)C(=O)N[C@@H](CCC(=O)O)C(=O)N[C@@H](CC(N)=O)C(=O)NCC(N)=O)[C@@H](C)O",
    "IC50": "6 µM"
  },
  {
    "molSmiles": "CC(C)[C@H](NC(=O)[C@H](Cc1c[nH]c2ccccc12)NC(=O)[C@H](CC(=O)O)NC(=O)[C@H](C)NC(=O)[C@@H](N)CS)C(=O)N[C@@H](CS)C(=O)N[C@@H](Cc1ccc(O)cc1)C(=O)N[C@@H](Cc1c[nH]c2ccccc12)C(=O)N[C@@H](Cc1cnc[nH]1)C(=O)N[C@H](C(=O)N[C@@H](Cc1ccccc1)C(=O)NCC(N)=O)[C@@H](C)O",
    "IC50": "0.1 to 1 µM"
  }
]

Consider the record given below.
Ask: Could you tell me which IC50 is on file for `CSCC[C@H](NC(=O)[C@@H](N)CS)C(=O)N[C@H](C(=O)N[C@@H](Cc1c[nH]c2ccccc12)C(=O)N[C@@H](CCC(N)=O)C(=O)N[C@@H](CS)C(=O)N[C@@H](Cc1ccc(O)cc1)C(=O)N[C@@H](Cc1c[nH]c2ccccc12)C(=O)N[C@@H](CC(C)C)C(=O)N[C@@H](Cc1ccc(O)cc1)C(=O)NCC(=O)N[C@@H](CCCNC(=N)N)C(=O)NCCOCC(=O)N[C@H](CCCCN)C(N)=O)[C@@H](C)O` ?
Result: > 30 µM

###

assay: Inhibition of interleukin-23 binding to rat interleukin-23 receptor incubated for 2 hrs by competitive binding ELISA
property: pIC50
Note on pIC50: it is the negative log10 of concentration, concentration in mol/L.

Ask: Could you tell me which pIC50 is on file for `CC(=O)N[C@@H](CS)C(=O)N[C@@H](CCCN)C(=O)N[C@H](C(=O)N[C@@H](Cc1c[nH]c2ccccc12)C(=O)N[C@@H](CCC(N)=O)C(=O)N[C@@H](CS)C(=O)N[C@@H](Cc1ccc(O)cc1)C(=O)N[C@@H](Cc1c[nH]c2ccccc12)C(=O)N[C@@H](CCCNC(=N)N)C(=O)N[C@H](C(=O)N[C@@H](Cc1ccccc1)C(=O)NCC(=O)NCCOCC(=O)N[C@H](CCCCN)C(N)=O)C(C)C)[C@@H](C)O` ?
Result: 7.16

###

Below, each entry is listed with its recorded pIC50.
target: Interleukin-23 receptor (Homo sapiens); assay: Inhibition of interleukin-23 binding to human interleukin-23 receptor incubated for 2 hrs by competitive binding ELISA
pIC50: −log10 of the molar value.

Here's what some known entries look like.
[
  {
    "molSmiles": "CC(=O)N[C@H](CCCCN)C(=O)N[C@@H](CS)C(=O)N[C@@H](CCCNC(=N)N)C(=O)N[C@@H](CC(=O)O)C(=O)N[C@@H](Cc1c[nH]c2ccccc12)C(=O)N[C@@H](CCC(N)=O)C(=O)N[C@@H](CS)C(=O)N[C@@H](Cc1ccc(O)cc1)C(=O)N[C@@H](Cc1cccc2ccccc12)C(=O)N[C@@H](Cc1cnc[nH]1)C(=O)N[C@H](C(=O)N[C@@H](Cc1cnc[nH]1)C(=O)N(C)CC(=O)NCCOCCC(=O)N[C@H](CCCNC(=N)N)C(N)=O)[C@@H](C)O",
    "assayValue": "6.00 to 6.30"
  },
  {
    "molSmiles": "CC(=O)NCCCC[C@H](NC(=O)[C@](C)(CCCCN)NC(=O)[C@H](Cc1ccc2ccccc2c1)NC(=O)[C@H](Cc1ccc(OCCN)cc1)NC(=O)[C@@H](NC(=O)[C@H](CCC(N)=O)NC(=O)[C@H](Cc1c[nH]c2ccccc12)NC(=O)[C@@H](NC(=O)[C@H](CCC(N)=O)NC(=O)[C@@H](NC(C)=O)C(C)(C)S)[C@@H](C)O)C(C)(C)S)C(=O)N[C@@H](CC(N)=O)C(=O)NCC(N)=O",
    "assayValue": "> 8.00"
  }
]

Consider the record given below.
Ask: Lab note: need pIC50 with Interleukin-23 receptor (Homo sapiens) for entry `CC(=O)N[C@@H](CS)C(=O)N[C@@H](C)C(=O)N[C@@H](CC(=O)O)C(=O)N[C@@H](Cc1c[nH]c2ccccc12)C(=O)N[C@H](C(=O)N[C@@H](CS)C(=O)N[C@@H](Cc1ccc(O)cc1)C(=O)N[C@@H](Cc1cccc2ccccc12)C(=O)N[C@H](C(=O)N[C@H](C(=O)N[C@@H](Cc1ccccc1)C(=O)NCC(N)=O)[C@@H](C)O)C(C)C)C(C)C` , please look it up.
Result: 6.00 to 6.30
